System: tetA promoter (PtetA)-lacZ reporter in E. coli KM3
Type: cell-based
experimental_setup: Table 6, reverse repressor hits; ethametsulfuron, same plate assay format as Table 4
Recorded relative β-galactosidase activity, inducer Es for the following molecules
Lab note: jot the number down without any unit.

molecule: L1-39: library L1 reverse repressor hit (SEQ ID NO: 1206-1213) (protein, rSuR L1-39) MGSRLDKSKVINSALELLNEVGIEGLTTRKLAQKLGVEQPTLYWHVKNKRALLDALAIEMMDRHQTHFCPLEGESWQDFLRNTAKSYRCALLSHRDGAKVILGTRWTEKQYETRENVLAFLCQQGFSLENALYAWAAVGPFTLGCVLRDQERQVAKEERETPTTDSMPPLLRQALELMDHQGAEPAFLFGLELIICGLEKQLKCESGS
numeric_readout: 0.60

relative β-galactosidase activity, inducer Es measured on L1-18: library L1 reverse repressor hit (SEQ ID NO: 1206-1213) (protein, rSuR L1-18) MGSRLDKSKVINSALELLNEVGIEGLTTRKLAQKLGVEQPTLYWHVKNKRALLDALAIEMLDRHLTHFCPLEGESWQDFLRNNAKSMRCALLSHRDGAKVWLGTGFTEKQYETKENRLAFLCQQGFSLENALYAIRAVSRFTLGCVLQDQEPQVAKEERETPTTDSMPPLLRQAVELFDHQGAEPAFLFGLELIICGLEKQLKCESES = 0.37
